Tgt: Kappa opioid receptor (KOR) (Homo sapiens)
Sequence (P41145 whole entry): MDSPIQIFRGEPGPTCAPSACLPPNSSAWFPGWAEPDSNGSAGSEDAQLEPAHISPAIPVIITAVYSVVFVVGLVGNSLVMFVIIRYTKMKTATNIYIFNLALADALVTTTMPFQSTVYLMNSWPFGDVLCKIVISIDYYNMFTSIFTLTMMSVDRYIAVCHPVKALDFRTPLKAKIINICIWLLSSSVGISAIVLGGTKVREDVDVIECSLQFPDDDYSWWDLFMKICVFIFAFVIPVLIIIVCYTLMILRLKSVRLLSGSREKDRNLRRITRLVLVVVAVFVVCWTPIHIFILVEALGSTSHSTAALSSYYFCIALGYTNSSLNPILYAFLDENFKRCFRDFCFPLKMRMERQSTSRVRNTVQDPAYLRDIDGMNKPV
Measurement protocol: cell-based; also: unit not given here
Type: cell-based
Square brackets hold non-standard residues; d marks the D form. Peptide text beside a SMILES is read from it. Phe(4-Cl) = N[C@@H](Cc1ccc(Cl)cc1)C(=O)O; Sar = CNCC(=O)O
Measured cAMP assay KOR 10 μM values are reported for all entries that follow.

INSERT INTO measurements (compound, reported_property, measured_result) VALUES
  ('CC(C)C[C@H](NC(=O)[C@H](Cc1ccccc1)NC(=O)CN(C)C(=O)[C@@H](N)Cc1ccc(O)cc1)C(=O)N[C@H](CCCNC(=N)N)C(=O)N[C@@H](CCCNC(=N)N)C(N)=O [SEQ ID NO. 6, NH2-Tyr-Sar-Phe-Leu-DArg-Arg-NH2] (H-Y[Sar]FL[dR]R-NH2)', 'cAMP assay KOR 10 μM', 35.13),
  ('CC(C)C[C@@H](NC(=O)[C@@H](Cc1ccccc1)NC(=O)[C@H](N)Cc1ccccc1)C(=O)N[C@H](CCCCN)C(=O)N1CCC(N)(C(=O)O)CC1 [SEQ ID NO. 35, DPhe-DPhe-DLeu-DLys-Cap-CO2H, reference compound]', 'cAMP assay KOR 10 μM', 34.61),
  ('CC(C)C[C@H](NC(=O)[C@H](Cc1ccc(Cl)cc1)NC(=O)CN(C)C(=O)[C@@H](N)Cc1ccc(O)cc1)C(=O)N[C@@H](CCCNC(=N)N)C(=O)N[C@H](CCCNC(=N)N)C(N)=O [SEQ ID NO. 11, NH2-Tyr-Sar-(4-Cl)Phe-Leu-Arg-DArg-NH2] (H-Y[Sar][Phe(4-Cl)]LR[dR]-NH2)', 'cAMP assay KOR 10 μM', 33.99);

Consider the record given below.
// query Consider the compound CC(C)C[C@H](NC(=O)[C@H](Cc1ccccc1)NC(=O)CN(C)C(=O)[C@@H](N)Cc1ccc(O)cc1)C(=O)N[C@@H](CCCNC(=N)N)C(=O)N[C@@H](CCCNC(=N)N)C(N)=O [SEQ ID NO. 2, NH2-Tyr-Sar-Phe-Leu-Arg-Arg-NH2] (H-Y[Sar]FLRR-NH2) and give its measured cAMP assay KOR 10 μM.
// result 32.41

Just for reference, patent US20240301023A1 is where these values come from.
